targetOrSystem: BRM (Homo sapiens, UniProt P51531)
Construct: made in house; host or cells: High Five insect cells
Sequence (P51531 whole entry): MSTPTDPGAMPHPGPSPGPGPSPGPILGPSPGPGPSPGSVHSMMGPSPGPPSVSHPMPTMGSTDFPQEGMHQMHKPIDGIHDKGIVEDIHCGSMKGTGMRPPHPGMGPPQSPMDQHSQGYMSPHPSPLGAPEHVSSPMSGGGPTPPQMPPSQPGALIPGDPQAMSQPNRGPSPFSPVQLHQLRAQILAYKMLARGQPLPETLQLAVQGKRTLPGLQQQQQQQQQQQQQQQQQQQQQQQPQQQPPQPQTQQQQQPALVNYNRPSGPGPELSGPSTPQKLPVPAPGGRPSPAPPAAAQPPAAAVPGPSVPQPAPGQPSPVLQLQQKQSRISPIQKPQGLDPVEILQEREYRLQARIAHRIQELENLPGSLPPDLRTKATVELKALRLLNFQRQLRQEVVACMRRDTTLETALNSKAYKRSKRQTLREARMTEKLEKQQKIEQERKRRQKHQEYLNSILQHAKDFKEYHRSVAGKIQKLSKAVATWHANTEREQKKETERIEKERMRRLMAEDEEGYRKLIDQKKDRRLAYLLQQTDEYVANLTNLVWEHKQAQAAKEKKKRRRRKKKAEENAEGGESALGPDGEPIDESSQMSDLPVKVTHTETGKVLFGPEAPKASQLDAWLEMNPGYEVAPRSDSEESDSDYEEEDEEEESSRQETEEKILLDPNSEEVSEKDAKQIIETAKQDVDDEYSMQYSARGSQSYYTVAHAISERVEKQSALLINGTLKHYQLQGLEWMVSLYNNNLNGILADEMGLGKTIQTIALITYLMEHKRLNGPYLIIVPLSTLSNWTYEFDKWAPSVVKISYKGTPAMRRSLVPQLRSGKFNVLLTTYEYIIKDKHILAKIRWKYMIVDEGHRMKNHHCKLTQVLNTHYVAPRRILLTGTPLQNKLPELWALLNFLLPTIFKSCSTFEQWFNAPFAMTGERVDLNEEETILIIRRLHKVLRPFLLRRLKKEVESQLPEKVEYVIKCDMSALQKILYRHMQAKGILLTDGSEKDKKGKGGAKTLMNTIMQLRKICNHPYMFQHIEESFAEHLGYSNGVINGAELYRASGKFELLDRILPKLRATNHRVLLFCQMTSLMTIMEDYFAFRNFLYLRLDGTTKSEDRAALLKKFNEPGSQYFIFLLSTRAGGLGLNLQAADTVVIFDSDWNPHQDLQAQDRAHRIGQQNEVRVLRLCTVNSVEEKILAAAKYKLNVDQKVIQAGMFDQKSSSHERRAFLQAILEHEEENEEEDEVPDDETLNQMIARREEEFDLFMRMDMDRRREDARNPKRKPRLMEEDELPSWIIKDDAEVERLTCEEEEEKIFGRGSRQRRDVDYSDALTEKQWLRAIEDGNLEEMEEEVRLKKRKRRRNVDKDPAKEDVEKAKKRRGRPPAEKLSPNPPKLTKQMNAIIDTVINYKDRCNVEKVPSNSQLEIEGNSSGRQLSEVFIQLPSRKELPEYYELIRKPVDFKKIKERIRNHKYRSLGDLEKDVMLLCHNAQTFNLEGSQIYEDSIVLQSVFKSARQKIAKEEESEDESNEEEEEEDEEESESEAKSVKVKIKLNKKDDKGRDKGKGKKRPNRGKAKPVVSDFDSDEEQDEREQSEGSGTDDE
assayComment: ATPase catalytic activity assay (ADP-Glo), BRM
Assay type: biochemical
experimentalSetup: 30 nM BRM, 400 μM ATP
Description: The ATPase catalytic activity of BRM or BRG-1 was measured by the in vitro biochemical assay using ADP-Glo™ (Promega, V9102). The ADP-Glo™ kinase assay is performed in two steps once the reaction is complete. The first step is to deplete any unconsumed ATP in the reaction. The second step is to convert the reaction product ADP to ATP, which will be utilized by the luciferase to generate luminesce and be detected by a luminescence reader, such as Envision. […]
propertyMeasured: BRM Max % Inhibition

[
  {
    "smilesNotation": "Cc1cc(-c2cccc(-c3csc(NC(=O)CNC(=O)c4cn(S(C)(=O)=O)c5ccccc45)n3)c2)cc(C)n1",
    "result": ">95%"
  },
  {
    "smilesNotation": "Cc1cc(-c2cccc(-c3csc(NC(=O)CNC(=O)c4cn(S(=O)(=O)C(C)C)c5ccccc45)n3)c2)cc(C)n1",
    "result": ">90%"
  },
  {
    "smilesNotation": "Cc1nccc(-c2cccc(-c3csc(NC(=O)CNC(=O)c4cc(C)n(S(=O)(=O)C(C)C)c4)n3)c2)n1",
    "result": ">95%"
  },
  {
    "smilesNotation": "Cc1nccc(-c2cccc(-c3csc(NC(=O)CNC(=O)c4cn(S(=O)(=O)C(C)C)c(C)c4C)n3)c2)n1",
    "result": ">95%"
  }
]
